Data provenance is patent US8586573B2.

# maps each entry to its melting point
reported.property: melting point

compound=O=C(Nc1cnc(N2CCCC2)nc1)c1cc2cc(F)ccc2n1Cc1cccc(F)c1 reported_property="melting point" result="220 to 222 °C"
compound=CN(C)c1ccc2cc(C(=O)Nc3ccc(N4CCC4)nc3)n(Cc3cccc(F)c3)c2c1 reported_property="melting point" result="256 to 258 °C"
compound=O=C(Nc1ccc(N2CCC2)nc1)c1cc2cccc(F)c2n1Cc1cccc(F)c1 reported_property="melting point" result="244 to 246 °C"
compound=CC(C)Oc1ccc2cc(C(=O)Nc3ccc(N4CCC4)nc3)n(Cc3cccc(F)c3)c2c1 reported_property="melting point" result="198 to 200 °C"
compound=O=C(Nc1ccc(N2CCC2)nc1)c1cc2ccc(C(F)(F)F)cc2n1Cc1cccc(F)c1 reported_property="melting point" result="220 to 222 °C"
compound=O=C(Nc1ccc(N2CCC2)nc1)c1cc2cc(F)ccc2n1Cc1ccncc1 reported_property="melting point" result="212 to 214 °C"
compound=Cc1cc(C)c2cc(C(=O)Nc3ccc(N4CCC4)nc3)n(Cc3cccc(F)c3)c2c1 reported_property="melting point" result="234 to 236 °C"
compound=CS(=O)(=O)c1ccc2c(c1)cc(C(=O)Nc1ccc(N3CCC3)nc1)n2Cc1cccc(F)c1 reported_property="melting point" result="258 to 260 °C"
compound=O=C(Nc1cnc(N2CCCC2)cc1C(F)(F)F)c1cc2cc(F)ccc2n1Cc1cccc(F)c1 reported_property="melting point" result="170 to 171 °C"
compound=CC(C)(C)c1ccc2cc(C(=O)Nc3ccc(N4CCC4)nc3)n(Cc3cccc(F)c3)c2c1 reported_property="melting point" result="204 to 206 °C"
compound=Cc1cc(Cn2c(C(=O)Nc3ccc(N4CCCC4)nc3)cc3cc(F)ccc32)ccn1 reported_property="melting point" result="213 to 215 °C"
compound=CC(C)c1ccc2cc(C(=O)Nc3ccc(N4CCC4)nc3)n(Cc3cccc(F)c3)c2c1 reported_property="melting point" result="184 to 186 °C"
compound=O=C(Nc1ccc(N2CC(O)C2)nc1)c1cc2ccc(C(F)(F)F)cc2n1Cc1cccc(F)c1 reported_property="melting point" result="253 to 255 °C"
compound=CSc1ccc2cc(C(=O)Nc3ccc(N4CCC4)nc3)n(Cc3cccc(F)c3)c2c1 reported_property="melting point" result="206 to 208 °C"
compound=CCc1ccc2cc(C(=O)Nc3ccc(N4CCC4)nc3)n(Cc3cccc(F)c3)c2c1 reported_property="melting point" result="196 to 198 °C"
compound=O=C(Nc1ccc(N2CCC2)nc1)c1cc2ccc(F)cc2n1Cc1cccc(F)c1 reported_property="melting point" result="210 to 212 °C"
compound=O=C(Nc1ccc(N2CCC2)nc1)c1cc2c(Cl)cccc2n1Cc1cccc(F)c1 reported_property="melting point" result="226 to 228 °C"
compound=O=C(Nc1ccc(N2CCCC2)nc1)c1cc2cc(F)ccc2n1Cc1cccc(F)c1 reported_property="melting point" result="199 to 201 °C"
compound=COc1cc(N2CCCC2)ncc1NC(=O)c1cc2cc(F)ccc2n1Cc1ccncc1 reported_property="melting point" result="225 to 226 °C"
compound=O=C(Nc1ccc(N2CCC2)nc1)c1cc2cc(Cl)ccc2n1Cc1cccc(F)c1 reported_property="melting point" result="226 to 228 °C"
compound=Cc1ccc2c(c1)cc(C(=O)Nc1ccc(N3CCC3)nc1)n2Cc1cccc(F)c1 reported_property="melting point" result="236 to 238 °C"
compound=O=C(Nc1ccc(N2CC(O)C2)nc1)c1cc2cc(F)ccc2n1Cc1cccc(F)c1 reported_property="melting point" result="199 to 200 °C"
compound=O=C(Nc1ccc(N2CCC2)nc1)c1cc2ccc(Cl)cc2n1Cc1cccc(F)c1 reported_property="melting point" result="218 to 220 °C"
compound=Cc1cccc2c1cc(C(=O)Nc1ccc(N3CCC3)nc1)n2Cc1cccc(F)c1 reported_property="melting point" result="246 to 248 °C"
compound=O=C(Nc1ccc(N2CCC2)nc1)c1cc2cc(F)ccc2n1Cc1ccccc1 reported_property="melting point" result="208 to 210 °C"
compound=O=C(Nc1ccc(N2CC(O)C2)nc1)c1cc2cc(C(F)(F)F)ccc2n1Cc1cccc(F)c1 reported_property="melting point" result="194 to 196 °C"
compound="O=C(Nc1ccc(N2CC3CCC3C2)nc1)c1cc2cc(F)ccc2n1Cc1cccc(F)c1 (stereo not drawn)" reported_property="melting point" result="163 to 165 °C"
compound=CC(C)(C)c1ccc2c(c1)cc(C(=O)Nc1ccc(N3CCC3)nc1)n2Cc1cccc(F)c1 reported_property="melting point" result="212 to 214 °C"
compound=O=C(Nc1ccc(N2CCC2)nc1)c1cc2ccccc2n1Cc1cccc(F)c1 reported_property="melting point" result="328 to 330 °C"
compound=Cc1ccc2cc(C(=O)Nc3ccc(N4CCC4)nc3)n(Cc3cccc(F)c3)c2c1 reported_property="melting point" result="228 to 230 °C"
compound=O=C(Nc1ccc(N2CCC2)nc1)c1cc2c(F)cccc2n1Cc1cccc(F)c1 reported_property="melting point" result="214 to 216 °C"
compound=CC(C)c1ccc2c(c1)cc(C(=O)Nc1ccc(N3CCC3)nc1)n2Cc1cccc(F)c1 reported_property="melting point" result="204 to 206 °C"
compound=O=C(Nc1ccc(N2CCC2)nc1)c1cc2cc(C(F)(F)F)ccc2n1Cc1cccc(F)c1 reported_property="melting point" result="222 to 224 °C"
